Reported z-score values are given for each entry in this list.
- Assay method text: basal 3T3-L1 adipocyte mitochondrial potential changes, profiling panel, cell-based, JC-1 fluorescence, 3T3-L1 adipocytes, 24 h, 100 nL compound (AID 1168); note: test concentration not given here
- Assay conditions: JC-1 mitochondrial fluorescence, higher = more signal, called active from +8 up or from −8 down
Measured property: z-score

Molecule | Measured property | Test result
NC(=O)NCC#Cc1ccc2c(c1)[C@]1(C(=O)N2)[C@H](c2ccccc2OCCO)N2[C@H](c3ccccc3)[C@H](c3ccccc3)OC(=O)[C@H]2[C@@H]1C(=O)Nc1nc2ccccc2s1 | z-score | 2.99
O=C1[C@@]23C=C(Br)[C@H](C[C@@H]2CCOC3)[C@@]12CO2 | z-score | -0.0633
CCOC(=O)C[C@H]1[C@H](OC(=O)c2ccc(C(=O)c3ccccc3)cc2)[C@@H](NC(=O)c2ccccc2)c2cc(OCCCO)ccc2N1C(=O)c1ccc2ccccc2n1 | z-score | 1.76
CC(C)[Si](C#Cc1ccc(Oc2ccccc2)cc1)(O[Si](C#Cc1ccc(Oc2ccccc2)cc1)(C(C)C)C(C)C)C(C)C | z-score | 0.733
CN1C(=O)C2C=CC(C(O)C#Cc3ccccc3)N(N3CCCCC3)C2C1=O (centres undefined) | z-score | 0.567
CCC[C@@H]1C[C@@]1(CCC)[C@@H](NS(=O)(=O)c1cccc2cccnc12)c1ccc(Cl)cc1 | z-score | 0.112
CC(C)[Si]1(C(C)C)O[C@@H](c2ccccc2)c2cc(-c3ccc(-c4ccc(Cl)c(Cl)c4)o3)nc(-c3ccccc3)c21 | z-score | -1.06
O=C1N(Cc2ccccc2)c2ccccc2[C@@H]2OC(c3ccc(OCCCO)cc3)=N[C@]12CCS(=O)(=O)c1ccccc1 | z-score | 1.86
O=C1O[C@H](c2ccccc2)[C@H](c2ccccc2)N2[C@H]1[C@@H](C(=O)N1CCCCCCC1)[C@]1(C(=O)Nc3ccc(C#CCCO)cc31)[C@H]2c1ccccc1OCCO | z-score | 0.757
COCCOC(=O)N1C(=O)[C@@]2(c3cc(C#CCC(C(=O)OC)C(=O)OC)ccc31)[C@H](C(=O)N1CCN(c3ncccn3)CC1)[C@H]1C(=O)O[C@H](c3ccccc3)[C@H](c3ccccc3)N1[C@@H]2c1ccccc1OCCO | z-score | 1.39
CCOC(=O)C[C@H]1[C@H](OC(=O)c2ccc(-c3ccccc3)cc2)[C@@H](NC(=O)Cc2ccc(OC)cc2)c2cc(OCCCO)ccc2N1C(=O)c1ccccc1 | z-score | -1.03
Cc1ccc(S[C@]2(C(=O)NCCCN(C)C)CC(=O)N(Cc3ccccc3C(F)(F)F)[C@@H]2c2ccc(CO)cc2)cc1 | z-score | 0.0218
COc1cc2c(cc1O)C(C1CC1)N(Cc1sc3ccccc3c1Cl)CC2 (centres undefined) | z-score | -1.07
C[C@H]1NC(=O)[C@@]23C(=O)N[C@@H](Cc4ccccc4)C2[C@H](C)[C@@]2(C)O[C@H]2C3/C=C/C/C=C\CNC(=O)[C@@H]2CCCN2C1=O (some centres undefined) | z-score | 0.0802

###

- Tested system: Concanavalin-A (Canavalia ensiformis) (UniProt P02866)
- Sequence (P02866 whole entry, looked up): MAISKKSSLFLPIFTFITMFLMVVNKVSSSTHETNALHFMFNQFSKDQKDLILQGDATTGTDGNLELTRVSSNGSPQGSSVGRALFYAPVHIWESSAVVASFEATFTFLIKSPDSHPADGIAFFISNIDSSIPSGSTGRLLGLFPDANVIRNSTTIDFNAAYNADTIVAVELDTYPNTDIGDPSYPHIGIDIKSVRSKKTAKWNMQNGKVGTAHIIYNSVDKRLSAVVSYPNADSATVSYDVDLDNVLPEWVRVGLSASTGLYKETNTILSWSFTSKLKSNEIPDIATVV
- Assay method text: ConA small-molecule binders, primary screen, artefact control for SMM control protein annotation, biochemical, small-molecule microarray, Alexa647 label, 635 nm (AID 1127);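 note: z combines 667 nm emission intensity with signal-to-noise across three replicate slides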
- Assay conditions: ConA-A647 binding fluorescence, higher = more signal
composite z-score values by entry

Molecule | composite z-score
COC(=O)[C@@]1(CCC(=O)OC(C)(C)C)N=C(c2ccc(OCCCO)cc2)O[C@H]1c1ccccc1N=[N+]=[N-] | 0.721
C=CC[C@]1(C(=O)NCCCOC)N=C(c2ccc(OCCCO)cc2)O[C@H]1c1ccccc1CN=[N+]=[N-] | 0.983
O=C1C[C@@](C(=O)NCCN2CCOCC2)(c2ccc([N+](=O)[O-])cc2)[C@@H](c2ccc(CO)cc2I)N1CC12CC3CC(CC(C3)C1)C2 | 0.987
CC(C)C(O)C1C=CC2C(=O)N(c3ccccc3)C(=O)C2N1Nc1ccc([N+](=O)[O-])cc1 (stereo unspecified) | 0.726
CN1C(=O)C2C=CC(C(O)C#Cc3ccccc3)N(N3CCCCC3)C2C1=O (stereo unspecified) | 0.82
C=CCNC(=O)[C@@H]1[C@H]2C(=O)O[C@H](c3ccccc3)[C@H](c3ccccc3)N2[C@H](c2ccc(O)cc2)[C@@]12C(=O)N(C(=O)OCCOC)c1ccc(C#CCNC(N)=O)cc12 | 1.1
O=C(CS)NCCCCCCNC(=O)[C@@H]1C[C@@H]2C(=O)N[C@@H](Cc3ccccc3)C(=O)N2[C@@H]1c1cccc(OCCO)c1 | 1.15
O=C1NC(=O)C2C1C=CC(C(O)c1cccs1)N2Nc1ccc(Cl)cc1Cl (stereo unspecified) | -0.376
COCCOC(=O)N1C(=O)[C@@]2(c3cc(C#CCC(C(=O)OC)C(=O)OC)ccc31)[C@H](C(=O)Nc1nc3ccccc3s1)[C@H]1C(=O)O[C@H](c3ccccc3)[C@H](c3ccccc3)N1[C@@H]2c1ccccc1OCCO | 1.19
C=C[C@H](C)[C@@H](OC(=O)Nc1ccc(OC)cc1)c1ccc(O)c2ccccc12 | -0.365
C=C[C@H](OC)[C@@H](OC(=O)Nc1ccc(OC)cc1)c1ccc(O)c(F)c1 | -1.15
O=C1c2ccccc2[C@](Cc2ccccc2I)(C(=O)NCCN2CCOCC2)[C@H](c2ccc(CO)cc2)N1Cc1ccccc1Cl | 1.17
O=C1C2C=CC(C(O)c3cc(C(F)(F)F)cc(C(F)(F)F)c3)N(n3cnnc3)C2C(=O)N1Cc1ccccc1 (stereo unspecified) | 0.516
C=C[C@H](CO[Si](CC)(CC)CC)N(Cc1ccc(OC(C)=O)c(OC)c1)S(=O)(=O)c1ccc(Br)cc1 | 1.13
CN(C)C(=O)[C@]1(Cc2ccccc2N=[N+]=[N-])N=C(c2ccc(OCCCO)cc2)O[C@@H]1c1ccccc1N=[N+]=[N-] | 1.14
C=CCNC(=O)[C@H]1[C@@H]2C(=O)O[C@@H](c3ccccc3)[C@@H](c3ccccc3)N2[C@@H](c2ccccc2OCCO)[C@]12C(=O)Nc1ccc(C#CCCO)cc12 | 0.801
